Test system: HCC-2998 colon
assay: NCI-60 one-dose screen, 48 h (100 = growth as untreated, 0 = no growth, -100 = all killed)
condition summary: 10 µM unless noted
Compounds without any hit were thinned out: in the full panel of roughly 83,000, 20% have a hit.
# label = 1 if growth >= -50% else 0

| compound | discrete label |
| --- | --- |
| COc1cccc(COc2ccc(NC(=O)Nc3ccc(Cl)c(C(F)(F)F)c3)cc2)c1 | 1 |
| C=C1CC[C@@H]2[C@]3(C)COC(c4cn[nH]c4-c4ccc(C)cc4)O[C@@H]3CC[C@@]2(C)[C@@H]1C/C=C1/C(=O)OCC1O (stereo partly drawn) | 1 |
| N/C(=N\c1nc2ccccc2s1)NC(=O)Nc1ccccc1Br | 1 |
| C#CCOc1cc(N(CC)CC)ccc1C(C(=O)NC(C)(C)C)N(C(=O)C1CCc2cc(F)ccc2O1)c1ccccc1F (stereo not drawn) | 1 |
| COc1ccc([C@H](C)Nc2nc(Cl)nc3ccccc23)cc1 | 1 |
| Brc1ccc(-c2n(Cc3ccc4ccccc4c3)c(-c3ccccc3)c(-c3ccccc3)[n+]2Cc2ccc3ccccc3c2)cc1 | 0 |
| C=C1CC[C@@H]2[C@]3(C)COC(c4cn[nH]c4-c4ccc(Br)cc4)O[C@@H]3CC[C@@]2(C)[C@@H]1C/C=C1/C(=O)OCC1O (stereo partly drawn) | 0 |
